Measured values drawn from ChEMBL document CHEMBL1121381 for this set.

molecular target: Adrenergic receptor beta (Rattus norvegicus) (UniProt P18090+P10608+P26255); test: In vivo beta-adrenoceptor blocking potency measured by blockade of the isoproterenol tachycardia response in rat; format: functional, organism-based
Recorded Metric: ED50 (mg/kg)

Please review the entries below; each comes with its answer.
Molecule: CCCS(=O)(=O)NCCNCC(O)c1ccccc1 (configuration not stated)
ED50, mg/kg: 0.5
//
Molecule: CCC(=O)NCCNCC(O)c1ccc(C)cc1 (configuration not stated)
ED50, mg/kg: 0.5
//
Molecule: CC(C)C(=O)NCCNCC(O)c1ccc(Cl)cc1Cl (configuration not stated)
ED50, mg/kg: 0.75

A: CC(=O)Nc1ccc(CC(=O)NCCNCC(O)c2ccccc2)cc1 (configuration not stated)
B: O=C(Cc1ccc(Cl)cc1)NCCNCC(O)c1ccccc1 (configuration not stated)
Hey, between A and B which has a smaller measured ED50? Field: selected label. Fill in the label of the entry you choose.
B

A: O=[N+]([O-])c1ccccc1S(=O)(=O)NCCNCC(O)c1ccccc1 (configuration not stated)
B: CC(C)C(=O)NCC(C)(C)NCC(O)c1ccccc1 (configuration not stated)
C: Cl.O=C(NCCNCC(O)c1ccccc1)C1CCCCC1 (configuration not stated)
With regard to ED50, arrange the entries in ascending order, please. I would appreciate it if you listed the labels in the requested order.
C, B, A
(C: 0.16 mg/kg, B: 0.27 mg/kg, A: 2.5 mg/kg)

A: O=C(COc1ccc(Cl)cc1)NCCNCC(O)c1ccccc1 (configuration not stated)
B: COc1ccc(C(O)CNCCNC(=O)C(C)C)cc1 (configuration not stated)
C: CC(C)C(=O)NCCNCC(O)c1ccc(NS(C)(=O)=O)cc1 (configuration not stated)
With regard to ED50, arrange the entries in ascending order, please. I would appreciate it if you listed the labels in the requested order.
B, A, C
(B: 0.3 mg/kg, A: 2.5 mg/kg, C: 5.2 mg/kg)

* * *

organism: Felis catus; experiment: Percentage inhibition of depressor response in cat was determined; assay type: functional; set-up: concentration or dose not given beside the values
Listed below: Inhibition values for each entry.
The figure you give is taken to be in %; do not add the unit.

Please review the entries below; each comes with its answer.
Molecule: O=C(Cc1ccc(Cl)cc1)NCCNCC(O)c1ccccc1 (configuration not stated)
Inhibition, %: 3
--
Molecule: CCC(C)NCC(O)c1ccc2c(c1)CCCC2.Cl (configuration not stated)
Inhibition, %: 47
--
Molecule: Cl.O=C(NCCNCC(O)c1ccccc1)C1CCCCC1 (configuration not stated)
Inhibition, %: 0
--
Molecule: O=S(=O)(NCCNCC(O)c1ccccc1)c1ccccc1 (configuration not stated)
Inhibition, %: 27
--
Molecule: CC(C)C(=O)NCCNCC(O)c1ccccc1 (configuration not stated)
Inhibition, %: 27

Entry under review: O=C(NCCNCC(O)c1ccccc1)C1CCCC1 (configuration not stated) . Reported Inhibition?
8

Entry under review: O=S(=O)(Cc1ccccc1)NCCNCC(O)c1ccccc1 (configuration not stated) . Reported Inhibition?
0

* * *

species: Felis catus; assay: Percentage inhibition of depressor response in cat was determined; assay type: functional; set-up: concentration or dose not given beside the values
Recorded Metric: Inhibition (%)
The figure you give is taken to be in %; do not add the unit.

Compound: CC(C)CC(=O)NCCNCC(O)c1ccccc1 (centres undefined)
Inhibition, %: 25
//
Compound: COCC(=O)NCCNCC(O)c1ccccc1 (centres undefined)
Inhibition, %: 44
//
Compound: CC(C)C(=O)NCCNCC(O)c1ccc(N)cc1 (centres undefined)
Inhibition, %: 69
//
Compound: CC(=O)NCCNCC(O)c1ccccc1 (centres undefined)
Inhibition, %: 50
//
Compound: CC(C)C(=O)NCCNCC(O)c1ccc([N+](=O)[O-])cc1 (centres undefined)
Inhibition, %: 0
//
Compound: CCC(=O)NCCNCC(O)c1ccccc1 (centres undefined)
Inhibition, %: 46
//
Compound: O=C(COc1ccc(Cl)cc1)NCCNCC(O)c1ccccc1 (centres undefined)
Inhibition, %: 36
//
Compound: CCCCCC(=O)NCCNCC(O)c1ccccc1 (centres undefined)
Inhibition, %: 8

Entry under review: CC(=O)Nc1ccc(OCC(O)CNC(C)C)cc1 (centres undefined) [PRACTOLOL] . Reported Inhibition?
8

Entry under review: CCCC(=O)NCCNCC(O)c1ccccc1 (centres undefined) . Reported Inhibition?
0

Entry under review: CC(C)NCC(O)c1ccc(NS(C)(=O)=O)cc1 (centres undefined) [SOTALOL] . Reported Inhibition?
85

Entry under review: CCCCNC(=O)NCCNCC(O)c1ccccc1 (centres undefined) . Reported Inhibition?
54

Entry under review: CCCS(=O)(=O)NCCNCC(O)c1ccccc1 (centres undefined) . Reported Inhibition?
0

Entry under review: O=C(NCCNCC(O)c1ccccc1)Nc1ccccc1 (centres undefined) . Reported Inhibition?
0

* * *

target: Adrenergic receptor beta (Rattus norvegicus) (UniProt P18090+P10608+P26255); test: In vivo beta-adrenoceptor blocking potency measured by blockade of the isoproterenol tachycardia response in rat; format: functional, organism-based
Recorded Metric: ED50 (mg/kg)

Please review the entries below; each comes with its answer.
Compound: Nc1ccc(CC(=O)NCCNCC(O)c2ccccc2)cc1 (centres undefined)
Unit Of Measure: mg/kg
ED50: 2.5
--
Compound: CCCCCC(=O)NCCNCC(O)c1ccccc1 (centres undefined)
Unit Of Measure: mg/kg
ED50: 1.4

1: CC(C)CC(=O)NCCNCC(O)c1ccccc1 (centres undefined)
2: O=S(=O)(Cc1ccccc1)NCCNCC(O)c1ccccc1 (centres undefined)
3: CC(C)(CNC(=O)Cc1ccccc1)NCC(O)c1ccccc1.O=C(O)/C=C/C(=O)O (centres undefined)
4: O=C(Cc1ccccc1)NCCNCC(O)c1ccccc1 (centres undefined)
5: CC(CNCC(O)c1ccccc1)NC(=O)Cc1ccccc1 (centres undefined)
With regard to ED50, arrange the entries in ascending order, please. I would appreciate it if you listed the labels in the requested order.
3, 4, 1, 2, 5

A: CC(=O)c1ccc(OCC(=O)NCCNCC(O)c2ccccc2)cc1 (centres undefined)
B: O=S(=O)(NCCNCC(O)c1ccccc1)c1ccccc1 (centres undefined)
Hey, between A and B which has a smaller measured ED50? Field: selected label. Fill in the label of the entry you choose.
A
